target: ML1a human melatonin receptor (Homo sapiens)
Sequence (P48039 whole entry): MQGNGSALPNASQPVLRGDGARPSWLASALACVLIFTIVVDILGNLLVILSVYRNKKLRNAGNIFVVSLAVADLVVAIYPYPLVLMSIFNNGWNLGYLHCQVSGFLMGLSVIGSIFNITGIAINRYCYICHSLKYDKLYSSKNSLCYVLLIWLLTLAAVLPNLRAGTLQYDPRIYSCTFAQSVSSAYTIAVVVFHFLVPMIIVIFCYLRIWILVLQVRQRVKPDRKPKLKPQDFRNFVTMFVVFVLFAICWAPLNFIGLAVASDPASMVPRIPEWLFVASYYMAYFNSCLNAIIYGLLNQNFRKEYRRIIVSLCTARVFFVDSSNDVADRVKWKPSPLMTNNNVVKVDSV
pIC50: −log10 of the molar value.
pIC50 reference
readout-type: pIC50

>>> reading("CCC(=O)NC[C@@H]1C[C@@H]1c1cccc2c1CCO2 (relative stereo)")
"> 7.30"
>>> reading("CC(C)C(=O)NC[C@H]1C[C@H]1c1cccc2c1CCO2 (relative stereo)")
"> 7.30"
>>> reading("CCCC(=O)NC[C@@H]1C[C@@H]1c1cccc2c1CCO2 (relative stereo)")
"> 7.30"
>>> reading("CC(=O)NC[C@@H]1C[C@@H]1c1cccc2c1CCO2 (relative stereo)")
"6.70 to 7.30"
